protocol.details: A CellTox Green Cytotoxicity Assay to monitor cytotoxicity in HepG2 cells - 16 hour (AID 1224876); note: nearly all actives have a fitted effect of over 45% in size
conditions: CellTox Green fluorescence; series mostly up to 76.8 µM
Results filed as inconclusive are left out. Activity calls are given as the source filed them. Calls come from the whole dose curve; as a rule, active = well fitted activation curve with a large enough effect in the repeat runs; inconclusive = weak or mixed curves; inactive = flat fitted curve, though single readings scatter.
Please answer using one outcome listed in active, inactive

See these solved cases before continuing.
COc1cccc(C(=O)CCN[C@@H](C)[C@H](O)c2ccccc2)c1; inactive
CN(C)[C@@H]1C(=O)C(C(N)=O)=C(O)[C@@]2(O)C(=O)C3=C(O)c4c(O)ccc(Cl)c4[C@@](C)(O)[C@H]3C[C@@H]12; inactive
Oc1c(Br)c(Br)c(Br)c(Br)c1Br; inactive

Query: recorded result category for `NNC(=O)c1ccccc1` in this test inactive

Query: recorded result category for `CCCCCCCCCBr` in this test inactive

###

protocol.details: qHTS assay to identify small molecule antagonists of the progesterone receptor (PR) signaling pathway - cell viability counter screen (AID 1346798); note: nearly all actives have a fitted effect of over 50% in size
conditions: PR-UAS-bla HEK293T viability, CellTiter-Glo luminescence, 16 h; series mostly up to 92.4 µM
Inconclusive results are not listed. Active and inactive are the calls of the source. Calls follow the shape of the dose curve; as a rule, active = well fitted cell-killing curve with a large enough effect in the repeat runs; inconclusive = weak or mixed curves, or effect the other way; inactive = no such curve, though single readings can be large or run the other way.
Please answer using one outcome listed in class 1 for active, class 0 for inactive

See these solved cases before continuing.
Nc1ccccc1C(=O)OC/C=C/c1ccccc1; class 0
Oc1ccc2ccc3cccc4ccc1c2c34; class 0
CC(C)(C)OO; class 0
Clc1ccc(C(c2ccccc2Cl)C(Cl)(Cl)Cl)cc1 (centres undefined); class 0
N#CCc1ccc(Cl)cc1; class 0

Query: recorded result category for `Cc1cc(SCc2sc(-c3ccc(C(F)(F)F)c(F)c3)nc2C)ccc1OCC(=O)O` in this test class 1

Query: recorded result category for `Cc1cccc(OP(=O)(Oc2cccc(C)c2)Oc2cccc(C)c2)c1` in this test class 0

Query: recorded result category for `O=C(CCl)Nc1ccccc1` in this test class 1

Query: recorded result category for `CCCCCCCCCBr` in this test class 0

Query: recorded result category for `FC(Cl)(Cl)Cl` in this test class 0

Query: recorded result category for CCCCCCCCCCCCCC[P+](CCCCCC)(CCCCCC)CCCCCC (tested in a mixture with another compound) in this test class 1

Query: recorded result category for `[Cl][Sb]([Cl])[Cl]` in this test class 0

Query: recorded result category for `CC(C)OC(=S)S` in this test class 1

Query: recorded result category for `CC(=O)[O-].[Tl+]` in this test class 0

###

protocol.details: qHTS RealTime-Glo MT Cell Viability Assay in HEK293 cells - 40 hour (AID 1224874); note: potency is the fitted concentration of half-maximal effect; nearly all actives have a fitted effect of over 50% in size
conditions: RealTime-Glo luminescence
Inconclusive results are not listed. The source made the active and inactive calls. The call rests on the fitted dose curve; in most records, active means well fitted cell-killing curve with a large enough effect in the repeat runs; inconclusive means weak or mixed curves, or effect the other way; inactive means flat fitted curve, though single readings scatter.
result.type: Potency

Below, each entry is followed by its recorded Potency result.
C[C@@H]1CC[C@@]2(OC1)O[C@H]1[C@@H](O)[C@H]3[C@@H]4CC[C@H]5C[C@@H](O[C@@H]6O[C@H](CO)[C@H](O[C@@H]7O[C@H](CO)[C@@H](O)[C@H](O[C@@H]8OC[C@@H](O)[C@H](O)[C@H]8O)[C@H]7O[C@@H]7O[C@H](CO)[C@@H](O)[C@H](O[C@@H]8O[C@H](CO)[C@@H](O)[C@H](O)[C@H]8O)[C@H]7O)[C@H](O)[C@H]6O)[C@H](O)C[C@]5(C)[C@H]4CC[C@]3(C)[C@H]1[C@@H]2C; 11.6 µM (active)
CC(C)(O)c1cnn2c(-c3ccc(F)c(-c4c(F)cccc4C#N)c3)cnc2n1; 4.9 µM (active)
Cc1cc(N=Nc2ccccc2C)ccc1N; 21.9 µM (active)

State its Potency: `CC(=O)O[C@H]1CC[C@@]2(C)C(=CC[C@@H]3[C@@H]2CC[C@]2(C)C(=O)CC[C@@H]32)C1` 54.9 µM (active)

###

protocol.details: qHTS assay to identify small molecule antagonists of the estrogen receptor beta (ER-beta) signaling pathway - cell viability counter screen (AID 1259382); note: nearly all actives have a fitted effect of over 55% in size; note: potency is the fitted concentration of half-maximal effect
conditions: ER-beta-UAS-bla HEK293T viability, CellTiter-Glo luminescence, 16 h; series mostly up to 92.4 µM
Records with an inconclusive call do not appear. Activity calls are given as the source filed them. Calls follow the shape of the dose curve; as a rule, active = well fitted cell-killing curve with a large enough effect in the repeat runs; inconclusive = weak or mixed curves; inactive = flat fitted curve, though single readings scatter.
result.type: Potency

Below, each entry is followed by its recorded Potency result.
CC(=[OH+])/C=C(/C)[O-].CC(=[OH+])/C=C(\C)[O-].CC(=[OH+])/C=C(\C)[O-].[Fe]; inactive
N#Cc1c(-c2ccc(Cl)cc2)[nH]c(C(F)(F)F)c1Br; 38.6 µM (active)
CCSC(C)CC1CC(=O)C(/C(CC)=N/OC/C=C/Cl)=C(O)C1 (configuration not stated); inactive
O=C(NC(=O)c1c(F)cccc1F)Nc1cc(Cl)c(OC(F)(F)C(F)F)c(Cl)c1; inactive

Need Potency for each of these compounds.
1. O=C(O)COc1nc(Cl)c(Cl)cc1Cl
2. Cc1cc(N=Nc2ccccc2C)ccc1N
3. Oc1cccc(-c2ccccc2)c1

inactive
54.5 µM (active)
inactive

###

protocol.details: qHTS assay to identify small molecule antagonists of the retinoid-related orphan receptor gamma (ROR-gamma) signaling pathway - cell viability counter screen (AID 1159520); note: nearly all actives have a fitted effect of over 50% in size
conditions: Tet-on RORgamma CHO cells viability, ATP luminescence, 16 h; series mostly up to 92.4 µM
Records with an inconclusive call do not appear. Activity calls are given as the source filed them. Calls come from the whole dose curve; as a rule, active = well fitted cell-killing curve with a large enough effect in the repeat runs; inconclusive = weak or mixed curves, or effect the other way; inactive = no such curve, though single readings can be large or run the other way.
Please answer using one outcome listed in active, inactive

See these solved cases before continuing.
[Cl][Sn]([c]1ccccc1)([c]1ccccc1)[c]1ccccc1; active
CN(C)S(=O)(=O)N(SC(F)(Cl)Cl)c1ccccc1; active
CCCCCCCCCCCCCCCCCCn1cc[n+](C)c1; active
S=C=Nc1cccc2ccccc12; inactive
ClC1=C(Cl)[C@]2(Cl)[C@@H]3[C@@H]4C[C@@H]([C@H]5O[C@@H]45)[C@@H]3[C@@]1(Cl)C2(Cl)Cl; active

Next item in the queue.
Query: recorded result category for `[Cd+2].[Cl-].[Cl-]` in this test active

###

protocol.details: qHTS RealTime-Glo MT Cell Viability Assay in HEK293 cells - 8 hour (AID 1224887); note: nearly all actives have a fitted effect of over 50% in size
conditions: RealTime-Glo luminescence; series mostly up to 76.8 µM
Results filed as inconclusive are left out. Calls of active or inactive are those of the source. Calls come from the whole dose curve; as a rule, active = well fitted cell-killing curve with a large enough effect in the repeat runs; inconclusive = weak or mixed curves, or effect the other way; inactive = flat fitted curve, though single readings scatter.
Please answer using one outcome listed in Yes = active, No = inactive

See these solved cases before continuing.
CC(C)CC(C)N (stereo not drawn); No
CCCCOCN(C(=O)CCl)c1c(CC)cccc1CC; No
N#Cc1ccc(O)cc1; No
CCCCN(CCCC)C(=S)[S-].CCCCN(CCCC)C(=S)[S-].[Zn+2]; Yes
C1CCC2CCCCC2C1 (stereo not drawn); No
O=CC(Br)(Br)Br; No

Query: recorded result category for `Nc1c(Oc2ccccc2)cc(O)c2c1C(=O)c1ccccc1C2=O` in this test Yes

Query: recorded result category for `CC(C)CBr` in this test No

###

protocol.details: qHTS assay to identify small molecule HDAC inhibitors (AID 1259364);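 note: wild-type HCT-116 cells with endogenous class I/II HDAC activity; nearly all actives have a fitted effect of over 45% in size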
conditions: HCT-116 HDAC-Glo I/II luminescence, 2 h; series mostly up to 92.4 µM
Results filed as inconclusive are left out. The source made the active and inactive calls. Calls follow the shape of the dose curve; as a rule, active = well fitted inhibition curve with a large enough effect in the repeat runs; inconclusive = weak or mixed curves; inactive = flat fitted curve, though single readings scatter.
Please answer using one outcome listed in true (1) (active), false (0) (inactive)

See these solved cases before continuing.
CC(C)CC(C)Nc1ccc(Nc2ccccc2)cc1 (stereo not given); false (0)
CNC(C)Cc1ccc2c(c1)OCO2 (stereo not given); false (0)
O=C1c2ccccc2C(=O)C1C(=O)C(c1ccccc1)c1ccc(Cl)cc1 (stereo not given); false (0)

Query: recorded result category for `ClCc1ccccc1CCl` in this test false (0)

Query: recorded result category for `CCCN(CCC)c1c([N+](=O)[O-])cc(S(N)(=O)=O)cc1[N+](=O)[O-]` in this test false (0)

Query: recorded result category for `CC(=O)C(Cl)(Cl)Cl` in this test false (0)

Query: recorded result category for `Nc1ccccc1C(=O)Oc1ccc2ccccc2c1` in this test true (1)

Query: recorded result category for `C[C@@H]1O[C@@H](O[C@@H]2C=C3CC[C@@H]4[C@H](CC[C@]5(C)[C@@H](c6ccc(=O)oc6)CC[C@]45O)[C@@]3(C)CC2)[C@H](O)[C@H](O)[C@H]1O` in this test false (0)

Query: recorded result category for Clc1ccc(CSC(Cn2ccnc2)c2ccc(Cl)cc2Cl)cc1 (stereo not given) in this test false (0)

Query: recorded result category for `CCOCCOC(C)=O` in this test false (0)

###

protocol.details: qHTS assay to identify aromatase inhibitors - cell viability counter screen (AID 743084);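 note: cells stimulated with testosterone during compound exposure; nearly all actives have a fitted effect of over 55% in size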
conditions: MCF-7 aro ERE viability, CellTiter-Fluor, 24 h; series mostly up to 70.3 µM
Inconclusive results are not listed. Calls of active or inactive are those of the source. Calls come from the whole dose curve; as a rule, active = well fitted cell-killing curve with a large enough effect in the repeat runs; inconclusive = weak or mixed curves, or effect the other way; inactive = no such curve, though single readings can be large or run the other way.
Please answer using one outcome listed in active, inactive

See these solved cases before continuing.
CCCOCC(=Nc1ccc(Cl)cc1C(F)(F)F)n1ccnc1; active
S=C=Nc1cccc2ccccc12; active
CC(=O)[O-].CC(=O)[O-].O.O.[Cd+2]; active
c1ccc2c(c1)[nH]c1cnccc12; inactive
Nc1ccccc1C(=O)OC/C=C/c1ccccc1; inactive
CC1(C)CN=C(NN=C(/C=C/c2ccc(C(F)(F)F)cc2)/C=C/c2ccc(C(F)(F)F)cc2)NC1; active
Fc1ccc(Oc2ccnc3cc(Cl)cc(Cl)c23)cc1; inactive
CC(=O)OC1(c2ccccc2)CCN(CCc2ccccc2)CC1; inactive
ClC1=C(Cl)[C@]2(Cl)[C@H]3[C@H]([C@H]4C=C[C@H]3C4)[C@@]1(Cl)C2(Cl)Cl; inactive
CC(=O)[O-].[Tl+]; inactive

Query: recorded result category for C[C@H]1CC[C@@H]2[C@@H](C)[C@H]3[C@H](C[C@H]4[C@@H]5CC=C6CC(O[C@@H]7O[C@H](CO)[C@H](O)[C@H](O[C@@H]8O[C@H](CO)[C@@H](O)[C@H](O)[C@H]8O)[C@H]7O[C@H]7O[C@@H](C)[C@H](O)[C@@H](O)[C@H]7O)CC[C@]6(C)[C@H]5CC[C@]34C)N2C1 (some centres not stated) in this test active

Query: recorded result category for CC1(C)C(/C=C(\Cl)C(F)(F)F)C1C(=O)OC(C#N)c1cccc(Oc2ccccc2)c1 (configuration not stated) in this test inactive

meta.source: PubChem BioAssay (Tox21)
